# Tested Target: PDGF-BB (platelet-derived growth factor BB) (Homo sapiens)
# Protocol Notes: filter
# Condition: as 4149-8_379; NapdU 16; PS 9,15
Property Measured: pKd
Lab note — pKd values are minus log10 of concentrations in M.

Sure, the documented pKd for TTACGTTACCGCGTTTATAGCG [4149-8_433] is 10.18

----------
# System: VEGF-121 (Homo sapiens), P15692-9
# Sequence: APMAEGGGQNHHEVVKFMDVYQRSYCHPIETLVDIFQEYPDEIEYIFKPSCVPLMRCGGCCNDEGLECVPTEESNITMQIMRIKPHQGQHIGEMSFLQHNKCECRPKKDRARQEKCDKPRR
# Protocol Notes: filter
# Condition: P=Nap-dU; 2'-OMe G30
Property Measured: Kd (nM)
The response must be a number in nM with no trailing unit.

Sure, the documented Kd for AGCCGTTCAAGTGCTTGTAGGATTTAAATGGA [4867-31_94] is 0.21
